Biological target: CCDC6-RET-BaF3 (Homo sapiens)
Construct: fused on or other part: Q16204 (Coiled-coil domain-containing protein 6)
Sequence (P07949 whole entry, change not shown, the tested form may be a part): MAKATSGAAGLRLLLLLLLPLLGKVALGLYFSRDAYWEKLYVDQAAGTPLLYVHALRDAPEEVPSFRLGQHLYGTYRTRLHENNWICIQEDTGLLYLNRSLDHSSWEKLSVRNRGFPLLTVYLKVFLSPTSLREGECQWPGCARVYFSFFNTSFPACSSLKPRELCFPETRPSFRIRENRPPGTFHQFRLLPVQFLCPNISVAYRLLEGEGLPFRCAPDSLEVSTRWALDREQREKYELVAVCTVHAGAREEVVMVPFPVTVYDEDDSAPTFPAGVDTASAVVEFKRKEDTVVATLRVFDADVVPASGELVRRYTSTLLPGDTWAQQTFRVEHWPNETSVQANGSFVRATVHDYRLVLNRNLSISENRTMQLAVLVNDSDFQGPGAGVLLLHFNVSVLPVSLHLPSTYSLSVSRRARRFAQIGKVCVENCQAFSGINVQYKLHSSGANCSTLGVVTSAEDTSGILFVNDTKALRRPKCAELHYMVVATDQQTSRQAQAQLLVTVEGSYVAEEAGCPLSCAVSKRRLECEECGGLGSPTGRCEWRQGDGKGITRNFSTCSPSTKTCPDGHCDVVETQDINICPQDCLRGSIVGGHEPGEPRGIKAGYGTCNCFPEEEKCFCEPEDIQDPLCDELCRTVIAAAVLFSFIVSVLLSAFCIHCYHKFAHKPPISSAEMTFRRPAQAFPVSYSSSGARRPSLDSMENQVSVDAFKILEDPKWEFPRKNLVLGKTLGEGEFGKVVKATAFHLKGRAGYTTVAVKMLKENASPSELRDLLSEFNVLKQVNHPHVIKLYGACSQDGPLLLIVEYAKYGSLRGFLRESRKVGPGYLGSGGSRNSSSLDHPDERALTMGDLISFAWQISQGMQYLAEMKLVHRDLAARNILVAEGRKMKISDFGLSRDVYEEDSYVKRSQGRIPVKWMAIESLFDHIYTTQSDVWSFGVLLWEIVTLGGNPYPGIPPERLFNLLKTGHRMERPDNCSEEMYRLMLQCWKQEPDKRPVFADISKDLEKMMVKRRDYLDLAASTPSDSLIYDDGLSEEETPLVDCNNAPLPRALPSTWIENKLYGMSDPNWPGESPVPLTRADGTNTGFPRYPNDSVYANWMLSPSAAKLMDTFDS
Assay: Growth inhibition of CCDC6-RET-BaF3 cells stably transfected with kinase (MTS)
Format: cell-based
Settings: 48 h, read-out: CCDC6-RET (IC50/nM)
Description: Growth inhibitory activity of compounds on cell lines stably transfected with kinase The activity of compounds against kinase RET is evaluated by their effect of inhibiting growth of cell lines stably transfected with kinase CCDC6-RET-BaF3, KIF5B-RET-BaF3, and wild-type BaF3 (Proc. Natl. Acad. Sci. USA., 2006, 103, 3153-8.). The growth of the cell lines stably transfected with kinase CCDC6-RET-BaF3, KIF5B-RET-BaF3 depends on their kinase activity. […]
The compounds listed here are annotated with their GI50.
Just the number in nM, nothing appended.

For the compound shown here, Cc1ccc(C(=O)Nc2cc(CN3CCN(C)CC3)cc(C(F)(F)F)c2)cc1Oc1nc(-c2ccncc2)nc2c1cnn2C [II-s-2] , give the reported GI50.
188

For the compound shown here, Cc1ccc(C(=O)Nc2ccc(CN3CCN(C)CC3)c(C(F)(F)F)c2)cc1Oc1nc(N2CCN(C)CC2)nc2ccn(C)c12 [III-m-23] , give the reported GI50.
515

For the compound shown here, CN1CCN(Cc2ccc(C(=O)Nc3cc(Oc4nc(-c5ccncc5)nc5cc[nH]c45)ccc3Cl)cc2C(F)(F)F)CC1 [III-k-2] , give the reported GI50.
0.79

For the compound shown here, Cc1ccc(Oc2nc(-c3ccccc3)nc3cc[nH]c23)cc1NC(=O)c1ccc(CN2CCN(C)CC2)c(C(F)(F)F)c1 [III-j-3] , give the reported GI50.
2480

For the compound shown here, Cc1ccc(C(=O)Nc2cc(CN3CCN(C)CC3)cc(C(F)(F)F)c2)cc1Oc1nc(-c2cccnc2)nc2ccsc12 [VI-q-1] , give the reported GI50.
3570

For the compound shown here, Cc1ccc(Oc2nc(-c3ccccc3)nc3ccn(C)c23)cc1NC(=O)c1ccc(CN2CCN(C)CC2)c(C(F)(F)F)c1 [III-j-7] , give the reported GI50.
1270

====

biological target: KIF5B-RET-BaF3 (Homo sapiens); construct: fused on or other part: P33176 (Kinesin-1 heavy chain); test: Growth inhibition of KIF5B-RET-BaF3 cells stably transfected with kinase (MTS); format: cell-based; conditions: 48 h, read-out: KIF5B-RET (IC50/nM)
Sequence (P07949 whole entry, change not shown, the tested form may be a part): as above
observable: GI50
Answer by giving the amount and then stating its unit.

For the compound shown here, Cc1ccc(Oc2nc(-c3ccc(N)cc3)nc3ccn(C)c23)cc1NC(=O)c1ccc(CN2CCN(C)CC2)c(C(F)(F)F)c1 [III-j-16] , give the reported GI50.
1470 nM

For the compound shown here, Cc1ccc(Oc2ncnc3ccn(C)c23)cc1NC(=O)c1ccc(CN2CCN(C)CC2)c(C(F)(F)F)c1 [III-j-18] , give the reported GI50.
1350 nM

For the compound shown here, Cc1ccc(Oc2nc(-c3ccncc3)nc3ccn(C)c23)cc1C(=O)Nc1ccc(CN2CCN(C)CC2)c(C(F)(F)F)c1 [III-n-4] , give the reported GI50.
17.2 nM

Further cases:
For the compound shown here, Cc1ccc(C(=O)Nc2ccc(CN3CCN(C)CC3)c(C(F)(F)F)c2)cc1Oc1cc(-c2ccncc2)nc2[nH]ccc12 [V-m-2] , give the reported GI50.
978 nM
